Listed here: items and their measured inhibition.
experimental details: M. tuberculosis H37Rv growth inhibitors, H37Rv strain (AID 1626);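 also: bacteria incubated seven days before Alamar blue readout; 0% = bacteria only wells and 100% = bacteria with antibiotic wells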
experimental context: stronger effect = higher value, concentration not given here
The whole screen tested about 220,000 compounds, of which about 2,000 (0.91%) were called active. Roughly 2% stayed inconclusive and do not appear here. A selection follows. Potency and affinity values are given separately.
Respond with the bare value in %.

Worked examples follow.
>>> df
                                   compound  endpoint_value
0  COc1ccc(CNC(=O)C2Cc3ccccc3CN2C(=O)c2ccco2)cc1 (centres undefined)          -0.615
1         COC(=O)N1CCN(c2ccc(Cl)c(Cl)c2)CC1           -4.81
2  O=C(NCc1ccccc1)c1ccccc1-c1nc2ccccc2[nH]1            4.78

Now look at this entry.
Ask | Name the recorded inhibition for COC(=O)c1cccc(-n2c(CCC(=O)O)ccc2-c2cccs2)c1 .
Reply | 6.42
